Provide the recorded % decrease in rate of aggregation for the entries that follow.
# system-tested: α-synuclein (UniProt P37840 1-140); note: test concentration or dose not given here
# assay-details: cell-based or functional assay
Non-standard residues stand in square brackets, D forms with d.
Give bare numbers, in %.

1. Ac-[dH][dH][dV][dV][dV][dA]-NH2 (SMILES CC(=O)N[C@H](Cc1c[nH]cn1)C(=O)N[C@H](Cc1c[nH]cn1)C(=O)N[C@@H](C(=O)N[C@@H](C(=O)N[C@@H](C(=O)N[C@H](C)C(N)=O)C(C)C)C(C)C)C(C)C) [ZP-0159]; 18.6

Prompt: Identify measured % decrease in rate of aggregation corresponding to Ac-[dH][dH][dV][dE][dV][dA]-NH2 (SMILES CC(=O)N[C@H](Cc1c[nH]cn1)C(=O)N[C@H](Cc1c[nH]cn1)C(=O)N[C@@H](C(=O)N[C@H](CCC(=O)O)C(=O)N[C@@H](C(=O)N[C@H](C)C(N)=O)C(C)C)C(C)C) [ZP-0162]
Response: 6.6
